Source of measurements: patent US20240391954A1

Task for the reader: assign each of the following binders its reported % max activation.
# Target: human MC3R (human, UniProt P41968 1-323)
# Sequence (P41968 whole entry): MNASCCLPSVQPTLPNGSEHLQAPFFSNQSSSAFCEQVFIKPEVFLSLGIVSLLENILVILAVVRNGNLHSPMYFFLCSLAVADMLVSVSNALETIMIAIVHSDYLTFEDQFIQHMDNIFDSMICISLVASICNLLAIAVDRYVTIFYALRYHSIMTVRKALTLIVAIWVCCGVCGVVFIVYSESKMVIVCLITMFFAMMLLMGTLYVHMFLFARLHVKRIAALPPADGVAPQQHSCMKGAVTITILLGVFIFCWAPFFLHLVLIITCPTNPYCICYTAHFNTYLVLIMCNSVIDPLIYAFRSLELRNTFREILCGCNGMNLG
# Assay comment: cell-based or functional assay
Positions of bridges follow the written chain, without caps; N, C: chain ends. Non-standard residues stand in square brackets, D forms with d. dPhe(4-Br) = N[C@H](Cc1ccc(Br)cc1)C(=O)O; dTic = O=C(O)[C@H]1Cc2ccccc2CN1; Nle = CCCC[C@H](N)C(=O)O
Numbers only, in %.

Examples with answers:
Ac-RC[dA]R[dPhe(4-Br)]R[dA]C-NH2 (disulfide 2-8; SMILES CC(=O)N[C@@H](CCCNC(=N)N)C(=O)N[C@H]1CSSC[C@@H](C(N)=O)NC(=O)[C@@H](C)NC(=O)[C@H](CCCNC(=N)N)NC(=O)[C@@H](Cc2ccc(Br)cc2)NC(=O)[C@H](CCCNC(=N)N)NC(=O)[C@@H](C)NC1=O) [CTX-1260]	13
Ac-R[Nle]CH[dPhe(4-Br)]R[dW]C-NH2 (disulfide 3-8; SMILES CCCC[C@H](NC(=O)[C@H](CCCNC(=N)N)NC(C)=O)C(=O)N[C@H]1CSSC[C@@H](C(N)=O)NC(=O)[C@@H](Cc2c[nH]c3ccccc23)NC(=O)[C@H](CCCNC(=N)N)NC(=O)[C@@H](Cc2ccc(Br)cc2)NC(=O)[C@H](Cc2c[nH]cn2)NC1=O) [CTX-1231]	59

For reference, reported % max activation for Ac-RC[dA]R[dTic]R[dW]C-NH2 (disulfide 2-8) [CTX-1273] stands at 3.7
